B1: PKD2L1 (parent)
chain: VFIFYYVVEEILELHIHRLRYLSS

Variants of: B1
Experiment: protein stability index of a GFP-peptide fusion (GPS, HEK-293T) (PSI 1-6); higher = more stable;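 further: lentivirally expressed fusions sorted by FACS into six bins by GFP to DsRed ratio, PSI derived from sequencing read proportions per bin multiplied by bin number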
Conditions: c terminus: a fixed tail appended
Class label 1: protein stability index at least 3. Class label 0: protein stability index below 3.

q: Is protein stability index at least 3? Consider VFIFYYIVEEILELHIHRLRYLSS [V7I]
a: label 0

q: Record VFIFYYVVEEILELHIHRLFYLSS [R20F] ; criterion: protein stability index no lower than 3. Met?
a: label 0

q: Entry VPIFYYVVEEILELHIHRLRYLSS [F2P] : is its protein stability index no less than 3?
a: label 0

q: Could you please find out whether VLIFYYVVEEILELHIHRLRYLSS [F2L] has protein stability index that meets 3 or exceeds it?
a: label 0

q: Does protein stability index meet or surpass 3 for VFIFYYVVEEILEHHIHRLRYLSS [L14H] ?
a: label 0

q: Threshold query (protein stability index >= 3) on VFIFYYVVEEILELHIHRDRYLSS [L19D]
a: label 0

q: Does protein stability index meet or surpass 3 for VFIFYYVVEEILELHIHRLRVLSS [Y21V] ?
a: label 1

q: Decide: protein stability index of VFIFYYVVYEILELHIHRLRYLSS [E9Y] >= 3?
a: label 0

q: Is protein stability index at least 3? Consider HFIFYYVVEEILELHIHRLRYLSS [V1H]
a: label 0

q: Can VFIFYYVVEEILELHIHRLRDLSS [Y21D] be said to have protein stability index at or above 3?
a: label 0

q: Does protein stability index meet or surpass 3 for VFIFYYVVEEILELHIHRLRYLSE [S24E] ?
a: label 0

q: Given the entry VFIFYYVVEEILELHIHRLTYLSS [R20T] , answer whether its protein stability index meets or surpasses 3.
a: label 1

q: # check: protein stability index of VFIFYYVVEENLELHIHRLRYLSS [I11N] is greater than or equal to 3
a: label 1

q: # check: protein stability index of VFIFKYVVEEILELHIHRLRYLSS [Y5K] is greater than or equal to 3
a: label 1

q: Please tell me: is the variant VFIFYYVVEEILELHIHVLRYLSS [R18V] at or over 3 in terms of protein stability index?
a: label 0

q: Assess whether reported protein stability index for VFIFYYVVEEPLELHIHRLRYLSS [I11P] sits at 3 or higher.
a: label 0

q: Quick check: does YFIFYYVVEEILELHIHRLRYLSS [V1Y] have protein stability index greater than or equal to 3?
a: label 0

q: Evaluate VFINYYVVEEILELHIHRLRYLSS [F4N] : protein stability index at minimum 3?
a: label 0

q: Given the entry VFIFYKVVEEILELHIHRLRYLSS [Y6K] , answer whether its protein stability index meets or surpasses 3.
a: label 0

q: Check if protein stability index >= 3 (inclusive). Item: VFIFYYVVPEILELHIHRLRYLSS [E9P]
a: label 0

q: Given VFIFMYVVEEILELHIHRLRYLSS [Y5M] , state whether its protein stability index is at least 3.
a: label 0

q: Hello, I need to know if KFIFYYVVEEILELHIHRLRYLSS [V1K] has measured protein stability index not below 3. Thanks!
a: label 0

q: Record VFIFYYVVEEILELHIHRNRYLSS [L19N] ; criterion: protein stability index no lower than 3. Met?
a: label 0

q: # bool: protein stability index of VFIFYYVQEEILELHIHRLRYLSS [V8Q] >= 3
a: label 0

q: Say whether VFIFYYVIEEILELHIHRLRYLSS [V8I] shows protein stability index of 3 or more.
a: label 1

q: Answer whether protein stability index of VFIFYYVVEEILEWHIHRLRYLSS [L14W] is greater than or equal to 3.
a: label 0

q: Reported protein stability index reaches at least 3 for VFIFYYVVEEILELHIHRLRFLSS [Y21F] ?
a: label 1

q: Please tell me: is the variant VFIFYYVVKEILELHIHRLRYLSS [E9K] at or over 3 in terms of protein stability index?
a: label 1

q: Is the recorded value of protein stability index equal to or greater than 3 for this variant? VFIFYYVVEEILWLHIHRLRYLSS [E13W]
a: label 1

q: Exam item: decide whether the reported protein stability index for VFYFYYVVEEILELHIHRLRYLSS [I3Y] is at least 3.
a: label 1

q: Does VFIFYYVVREILELHIHRLRYLSS [E9R] have a reported protein stability index of at least 3?
a: label 1

q: Please check the record VFIFYYVVEEILELHIFRLRYLSS [H17F] and state if its protein stability index is at or above 3.
a: label 0

q: Please indicate if the recorded protein stability index for VFIFYYVVEEILELHWHRLRYLSS [I16W] meets or exceeds 3.
a: label 1

q: protein stability index >= 3 for VFEFYYVVEEILELHIHRLRYLSS [I3E] ?
a: label 1

q: Would you say VFIFYYVVEEQLELHIHRLRYLSS [I11Q] shows protein stability index at minimum 3?
a: label 1

q: # bool: protein stability index of VFIFYYVVEEILELHIHRLRYNSS [L22N] >= 3
a: label 0

q: Test whether the variant VFIFYYVVEEILECHIHRLRYLSS [L14C] records protein stability index of 3 or higher.
a: label 0

q: Test whether the variant VFIFHYVVEEILELHIHRLRYLSS [Y5H] records protein stability index of 3 or higher.
a: label 1

q: Please indicate if the recorded protein stability index for VFIFYFVVEEILELHIHRLRYLSS [Y6F] meets or exceeds 3.
a: label 0

q: Reported protein stability index reaches at least 3 for VFIFYAVVEEILELHIHRLRYLSS [Y6A] ?
a: label 0

q: Is the recorded value of protein stability index equal to or greater than 3 for this variant? VFIFYYYVEEILELHIHRLRYLSS [V7Y]
a: label 0

q: Decide: protein stability index of PFIFYYVVEEILELHIHRLRYLSS [V1P] >= 3?
a: label 0

q: Check this variant for protein stability index at or above 3: VFFFYYVVEEILELHIHRLRYLSS [I3F]
a: label 0

q: Hi team, for VFIFYYVVEEILELHIHRMRYLSS [L19M] , is the recorded protein stability index at or above 3?
a: label 0

q: For this variant, is measured protein stability index 3 or higher? VFIFYYVVEEIIELHIHRLRYLSS [L12I]
a: label 0

q: Can VFIFYYVVELILELHIHRLRYLSS [E10L] be said to have protein stability index at or above 3?
a: label 0

q: Kindly determine if protein stability index recorded for VFIFYYVVEEILELHIHRLRYLYS [S23Y] is above or exactly 3.
a: label 0

q: For this variant, is measured protein stability index 3 or higher? VFIFYYKVEEILELHIHRLRYLSS [V7K]
a: label 1

q: Given VFGFYYVVEEILELHIHRLRYLSS [I3G] , state whether its protein stability index is at least 3.
a: label 0

q: Say whether VFIFYYVVEEILELHDHRLRYLSS [I16D] shows protein stability index of 3 or more.
a: label 1

q: Hi, just wondering whether VFIFYYVVEEILELHIHRLRKLSS [Y21K] shows protein stability index of 3 or higher.
a: label 0

q: Does VFIYYYVVEEILELHIHRLRYLSS [F4Y] have a reported protein stability index of at least 3?
a: label 0

q: Does the reported protein stability index for VFIFYYVVENILELHIHRLRYLSS [E10N] fall at or above the 3 mark?
a: label 0

q: Is reported protein stability index greater than or equal to 3 here: VFIFYYVVEEILELHIHRLRYLTS [S23T]
a: label 1

q: Kindly determine if protein stability index recorded for VNIFYYVVEEILELHIHRLRYLSS [F2N] is above or exactly 3.
a: label 1

q: # bool: protein stability index of VFRFYYVVEEILELHIHRLRYLSS [I3R] >= 3
a: label 1

q: In plain terms: is recorded protein stability index at least 3 for VFIFYYVVEEILELHIHRCRYLSS [L19C] ?
a: label 0

q: Decide: protein stability index of VFIFYYVVEEILELHMHRLRYLSS [I16M] >= 3?
a: label 0

q: # check: protein stability index of VFIWYYVVEEILELHIHRLRYLSS [F4W] is greater than or equal to 3
a: label 0

q: Quick check: does VFIFYIVVEEILELHIHRLRYLSS [Y6I] have protein stability index greater than or equal to 3?
a: label 0

q: Does VFIFYYVVEEILELHIHRLRYGSS [L22G] have a reported protein stability index of at least 3?
a: label 0

q: Item VFIFYYVVEEILELHIHRLRYFSS [L22F] with protein stability index of 3 or above?
a: label 1

q: Hello, I need to know if VFIFYYVVEEIHELHIHRLRYLSS [L12H] has measured protein stability index not below 3. Thanks!
a: label 1

q: Check if protein stability index >= 3 (inclusive). Item: VFIFYYVVEDILELHIHRLRYLSS [E10D]
a: label 0

q: Dear colleague, could you confirm whether VFIFYYVVEEILELHNHRLRYLSS [I16N] has protein stability index at or above 3?
a: label 1

q: Hi, just wondering whether VFIFYRVVEEILELHIHRLRYLSS [Y6R] shows protein stability index of 3 or higher.
a: label 0

q: Check this variant for protein stability index at or above 3: VFIFYYVVEEILELHIHRLRYLSF [S24F]
a: label 0

q: Is the recorded value of protein stability index equal to or greater than 3 for this variant? VFIFYYVVEEILELHIHLLRYLSS [R18L]
a: label 1

q: Can VFIFYYVVEEILELHIHRLHYLSS [R20H] be said to have protein stability index at or above 3?
a: label 0

q: Check if protein stability index >= 3 (inclusive). Item: VFIFYYVVEEILELHIMRLRYLSS [H17M]
a: label 1

q: Please indicate if the recorded protein stability index for VFIFYYVVEEILELHIHQLRYLSS [R18Q] meets or exceeds 3.
a: label 0

q: Determine whether this variant has protein stability index no lower than 3: VFIFYYCVEEILELHIHRLRYLSS [V7C]
a: label 1

q: Does the reported protein stability index for VFIFYYVVEEILELHIHRLRYTSS [L22T] fall at or above the 3 mark?
a: label 1

q: Has LFIFYYVVEEILELHIHRLRYLSS [V1L] a recorded protein stability index greater than or equal to 3?
a: label 0

q: Form field: protein stability index at least 3? Entry: VFIFYYVVEEILELVIHRLRYLSS [H15V]
a: label 0

q: Form field: protein stability index at least 3? Entry: FFIFYYVVEEILELHIHRLRYLSS [V1F]
a: label 0

q: Kindly determine if protein stability index recorded for VFIFYYVVEEYLELHIHRLRYLSS [I11Y] is above or exactly 3.
a: label 0

q: Please indicate if the recorded protein stability index for VFIFYYVVEEILELHIHRLRELSS [Y21E] meets or exceeds 3.
a: label 0

q: Assess whether reported protein stability index for VFIFYYVVEEILELHIHRLLYLSS [R20L] sits at 3 or higher.
a: label 0

q: Reported protein stability index at or above 3? VFIFYYVLEEILELHIHRLRYLSS [V8L]
a: label 0

q: protein stability index >= 3 for VFIFYYVVEEFLELHIHRLRYLSS [I11F] ?
a: label 1

q: Please indicate if the recorded protein stability index for VFIFYWVVEEILELHIHRLRYLSS [Y6W] meets or exceeds 3.
a: label 1

q: Assess whether reported protein stability index for VFIFYYVVSEILELHIHRLRYLSS [E9S] sits at 3 or higher.
a: label 0

q: Entry VFIFYYVVEEHLELHIHRLRYLSS [I11H] : is its protein stability index no less than 3?
a: label 0

q: Please tell me: is the variant VFIFYNVVEEILELHIHRLRYLSS [Y6N] at or over 3 in terms of protein stability index?
a: label 0

q: Could you tell me if the measured protein stability index of VFIFYYVVEEKLELHIHRLRYLSS [I11K] reaches 3 or more?
a: label 0

q: protein stability index >= 3 for VFAFYYVVEEILELHIHRLRYLSS [I3A] ?
a: label 0
